System: HEK-293T
Method summary: Incucyte cell viability with HEK293T; also: filed as whole numbers so only -1 and 0 and 1 occur
Type: toxicity, cell-based
Measurement parameters: human, 24 h, 10 µM, compound concentration 10 uM, replicate number 1, timepoint 24 hours
Parameter measured: Growth Rate

compound=CCOc1cc(N2CCC(O)CC2)ccc1Nc1ncc2c(n1)N(C)c1ccccc1C(=O)N2C value=1
compound=CC(C)C(=O)Nc1n[nH]c2cc(-c3cccc(NS(=O)(=O)C4CC4)c3)ccc12 value=0
compound=C=C1/C(=C\C=C2/CCC[C@]3(C)[C@@H]([C@H](C)/C=C/C=C/C(O)(CC)CC)CC[C@@H]23)C[C@@H](O)C[C@@H]1O value=0
compound="CN([C@@H]1CCc2c(CC(=O)O)c3cc(S(C)(=O)=O)ccc3n2C1)S(=O)(=O)c1ccc(F)cc1 [CRTH2-negative-control]" value=0
compound="CN(C)[C@@H]1CCN(c2cc(-c3ccccc3)nc3ccnn23)C1 [(R)-ZINC-3573]" value=1
compound=CC(=O)C1=C(C)N(c2cccc(C(F)(F)F)c2)C(=O)N[C@H]1c1ccc(C#N)nc1 value=1
compound=CS(=O)(=O)c1cccc(NC(=O)N(Cc2ccc(C(=O)Nc3nn[nH]n3)cc2)c2ccc(C3CCCCC3)cc2)c1 value=1
compound=CC(C)S(=O)(=O)c1ccc2nccc(Nc3ccc4scnc4c3)c2c1 value=0
